# Study System: PD-1/PD-L1 protein/protein interaction (Homo sapiens (Human))
# Sequence (Q9NZQ7 19-238): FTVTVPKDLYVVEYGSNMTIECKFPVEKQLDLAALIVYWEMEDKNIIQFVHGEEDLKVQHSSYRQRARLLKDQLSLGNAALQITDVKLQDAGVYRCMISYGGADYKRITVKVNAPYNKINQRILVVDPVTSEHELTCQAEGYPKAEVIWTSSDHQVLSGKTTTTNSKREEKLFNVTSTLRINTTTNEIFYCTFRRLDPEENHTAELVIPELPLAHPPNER
# Method Summary: PD-1/PD-L1 Homogeneous Time-Resolved Fluorescence (HTRF) Binding Assay
# Experimental Context: recombinant human PD-L1 (19-238) His-tag 10 nM, human PD-1 (25-167) Fc tag 3 nM, 25° C., PBS pH 7.4
# Protocol: The assays were conducted in a standard black 384-well polystyrene plate with a final volume of 20 μL. Inhibitors were first serially diluted in DMSO and then added to the plate wells before the addition of other reaction components. The final concentration of DMSO in the assay was 1%. […] After centrifugation, the plate was incubated at 25° C. for 60 min. before reading on a PHERAstar FS plate reader (665 nm/620 nm ratio). […]
Recorded IC50 by entry

Guide cases for IC50, answers given:
structure_smiles=Cn1c(CNCCO)cnc1C(=O)Nc1cccc(-c2ccc3c(c2)OCCO3)c1C#N test_result="≤ 100 nM"
structure_smiles=Cc1c(NC(=O)c2nc(Cl)c(CNCCO)s2)cccc1-c1ccccc1 test_result="≤ 100 nM"
structure_smiles=Cc1c(NC(=O)c2cc(CN3CCCC[C@H]3C(=O)O)n(C)n2)cccc1-c1ccccc1 test_result="≤ 100 nM"

For the compound Cc1c(NC(=O)c2ncc(CNCCO)o2)cccc1-c1ccccc1 , what IC50 is on record?
100 to 500 nM

Report IC50 for Cn1c(CNCCO)cnc1C(=O)Nc1cccc(-c2cccc3c2cnn3C)c1C#N please.
100 to 500 nM

These measurements were taken from patent US11613536B2.
